assay: M. tuberculosis H37Rv growth inhibitors, H37Rv strain (AID 1626); conditions: stronger effect = higher value, concentration not given here;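 also: bacteria incubated seven days before Alamar blue readout; 0% = bacteria only wells and 100% = bacteria with antibiotic wells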
Out of some 220,000 compounds screened, about 2,000 (0.91%) were called active. Roughly 2% stayed inconclusive and do not appear here. Not all results are given here. Entries with a potency or affinity are not part of this list.
metric: inhibition (%)
Give bare numbers, in %.

compound: Cc1ccc(NC(=O)c2cc3c(s2)CCCC3)cc1
metric: inhibition
value measured: -5.85
//
compound: COC(=O)CCSCC(=O)Nc1nnc(C)s1
metric: inhibition
value measured: -2.82
//
compound: Cc1cc(NC(=O)CSc2nnc(Cc3ccccc3)o2)no1
metric: inhibition
value measured: -8.58
//
compound: COc1ccccc1-c1nc(-c2cccc(C)c2)no1
metric: inhibition
value measured: 9.74
//
compound: Nc1nnc(-c2cccc(F)c2)s1
metric: inhibition
value measured: 1

Please report inhibition for every entry that follows.
1. Nc1ccc(O)c2c1C(=O)c1ccccc1C2=O
2. CC(C)(C)NC(=O)c1ccc2c(c1)N(CC(=O)N1CCN(c3ccc(F)cc3)CC1)C(=O)C(C)(C)O2
3. Cc1ccc(OCC(=O)Nc2sc3c(c2C#N)CC(C)(C)NC3(C)C)cc1
4. CCC1C(=O)N=C(SCC(=O)Nc2ccccc2)NC1=O (stereo unspecified)
5. CCOC(=O)Cc1c(C)nc2c(-c3ccc(Cl)cc3)c(C)[nH]n2c1=O

[0.25, 8.11, 10.1, -8, 78.8]

###

assay: M. tuberculosis H37Rv growth inhibitors, H37Rv strain (AID 1626); conditions: stronger effect = higher value, concentration not given here;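 also: bacteria incubated seven days before Alamar blue readout; 0% = bacteria only wells and 100% = bacteria with antibiotic wells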
Screen size: about 220,000 compounds; about 2,000 (0.91%) were called active. About 2% were inconclusive and are not listed. A selection follows. Results with a measured potency or affinity are listed apart.
metric: inhibition (%)
Answers are plain numbers, in %.

molecule: COc1ccc(C(C(=O)NC2CCCCC2)N(C(=O)c2sc(C)nc2C)c2ccc(OC)cc2)cc1 (stereo unspecified)
unit string: %
value measured: 78.9

molecule: Cc1cc(/C=N/n2cnnc2)c(C)n1-c1ccc(Cl)cc1
unit string: %
value measured: 8.9

molecule: CN(C)S(=O)(=O)c1cccc(C(=O)NCC2CCCO2)c1 (stereo unspecified)
unit string: %
value measured: 4.28

Please report inhibition for every entry that follows.
1. CC(c1ccccc1)c1nnc(NC(=O)c2ccc3c(c2)OCO3)s1 (stereo unspecified)
2. CSC1=NC(C)(C)C=C(/C=C/c2ccc(Cl)cc2)N1
3. Cc1cc(C)cc(C(=O)NCCCc2ccccc2)c1
4. CCOC(=O)C1=C(C)N=c2s/c(=C/c3ccccc3)c(=O)n2C1c1ccc(OC)c(OC)c1 (stereo unspecified)
5. Cc1cc(/C=N/n2cnnc2)c(C)n1-c1ccc(Cl)cc1Cl
6. COc1ccc(C(C(=O)NC2CCCCC2)N(C(=O)c2ccccn2)c2cccnc2)cc1 (stereo unspecified)
7. CCOC(=O)C1=C(O)/C(=C/c2ccc(OCC(=O)O)c(OC)c2)SC1=Nc1ccc(OC)cc1

6.54
-4.38
-1.21
1
12.1
-6.78
17.4

Item `N#Cc1cc(C(=O)c2cc(Cl)ccc2O)cn(-c2ccccc2)c1=O` has what recorded inhibition? -3.03

###

test: M. tuberculosis H37Rv growth inhibitors, H37Rv strain (AID 1626); conditions: stronger effect = higher value, concentration not given here;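 also: bacteria incubated seven days before Alamar blue readout; 0% = bacteria only wells and 100% = bacteria with antibiotic wells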
In all, about 220,000 compounds went through this assay and about 2,000 (0.91%) were called active. About 2% were inconclusive and are not listed. Not all results are given here. Measured potencies and affinities stand elsewhere.
Would you mind telling me the reported inhibition of each entry?
Give bare numbers, in %.

These recorded examples may help you get a feel for the data.
compound: O=C(c1ccccc1)c1cc2ccccc2o1
inhibition / %: 1.99
--
compound: O=C1CCCc2sc3c(c2N1)CCCCC3
inhibition / %: -8.7
--
compound: COc1cccc(C(=O)/C=C/c2ccc(SC)cc2)c1
inhibition / %: 5.8
--
compound: CC1(C)S/C(=N/N=C/c2ccco2)NC1=O
inhibition / %: 3.45
--
compound: COc1cccc(/C=C/C(=O)c2ccc(C)c([N+](=O)[O-])c2)c1
inhibition / %: 17.5

Please report inhibition for every entry that follows.
1. CN(C)/C=N/c1ncc(C(=O)c2ccccc2)s1
2. O=C(NCC1CCN(S(=O)(=O)c2ccccc2)CC1)Nc1ccccc1

[-11.7, 10.3]

Values from PubChem BioAssay AID1626
